# TEST_SYSTEM: mGluR5 receptor (pig) (Sus scrofa, UniProt I3LUI7)
# Sequence (I3LUI7 19-1212): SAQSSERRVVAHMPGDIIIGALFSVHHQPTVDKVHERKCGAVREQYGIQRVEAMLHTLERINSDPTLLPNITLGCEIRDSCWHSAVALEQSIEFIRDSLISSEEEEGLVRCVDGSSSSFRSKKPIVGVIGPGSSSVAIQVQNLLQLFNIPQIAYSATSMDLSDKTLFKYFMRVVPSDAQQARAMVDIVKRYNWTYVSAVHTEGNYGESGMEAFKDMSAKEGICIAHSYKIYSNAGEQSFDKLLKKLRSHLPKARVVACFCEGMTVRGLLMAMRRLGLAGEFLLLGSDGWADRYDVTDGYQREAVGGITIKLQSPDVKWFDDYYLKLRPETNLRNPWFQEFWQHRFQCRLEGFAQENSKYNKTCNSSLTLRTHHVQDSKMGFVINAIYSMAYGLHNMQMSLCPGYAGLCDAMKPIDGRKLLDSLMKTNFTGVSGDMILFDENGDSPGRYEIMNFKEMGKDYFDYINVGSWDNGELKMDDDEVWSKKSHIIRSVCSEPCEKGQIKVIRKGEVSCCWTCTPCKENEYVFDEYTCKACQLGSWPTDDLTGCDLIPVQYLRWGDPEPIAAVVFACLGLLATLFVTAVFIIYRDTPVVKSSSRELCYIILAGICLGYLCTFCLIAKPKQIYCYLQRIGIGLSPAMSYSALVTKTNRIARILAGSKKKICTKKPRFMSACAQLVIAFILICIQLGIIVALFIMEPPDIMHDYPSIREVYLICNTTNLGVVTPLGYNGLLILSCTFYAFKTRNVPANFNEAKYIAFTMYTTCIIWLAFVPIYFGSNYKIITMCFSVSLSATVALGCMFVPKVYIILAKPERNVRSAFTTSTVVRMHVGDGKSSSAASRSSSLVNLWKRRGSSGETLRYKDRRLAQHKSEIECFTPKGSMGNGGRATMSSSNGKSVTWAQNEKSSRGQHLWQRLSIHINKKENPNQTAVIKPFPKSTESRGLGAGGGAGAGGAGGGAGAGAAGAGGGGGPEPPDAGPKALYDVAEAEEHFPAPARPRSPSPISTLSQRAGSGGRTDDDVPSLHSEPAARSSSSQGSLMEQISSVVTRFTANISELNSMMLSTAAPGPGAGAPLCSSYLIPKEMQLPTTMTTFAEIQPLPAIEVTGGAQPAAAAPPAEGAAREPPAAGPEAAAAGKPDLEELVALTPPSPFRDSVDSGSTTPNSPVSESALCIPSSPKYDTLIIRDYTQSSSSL
Answer each item with its documented log10 of IC50.
Each number you see is log10 of IC50, and the unit inside the log is nM.

Input `O=C(C#Cc1ccccc1)N1CCCc2ccccc21` . Output log10 of IC50: 3.24

# compound `COc1cc2c(cc1O)CN(C(=O)C#Cc1cccc(Cl)c1)CC2` ; its log10 of IC50 = 2.86

Dear colleague, could you send me log10 of IC50 for each of the items below? Thanks.
1. O=C(C#Cc1cccc(Cl)c1)N1CCc2ccccc2CC1
2. Cc1cccc2c1CCN(C(=O)C#Cc1cccc(Cl)c1)C2
3. Cc1ccc2c(c1)CCN(C(=O)C#Cc1cccc(Cl)c1)C2
4. O=C(C#Cc1ccccn1)N1CCc2ccccc2C1

Out:
1: 1.36; 2: 0.67; 3: 1.74; 4: 3.93
